Assay: mouse pharmacokinetics, plasma HPLC-MS/MS
Type: in vivo, mice (B6D2F1)
Conditions: both sexes, B6D2F1, plasma, iv, 20 mg/kg in 2% GDM-12
OBSERVED PROPERTY: Cmax (ng/mL)
Supply the numeric figure in ng/mL, leaving out any unit text.

Please indicate Cmax recorded for "CO[C@H]1/C=C/CCCCCOC/C(C)=C\[C@@H](C)[C@@H]1OCC(=O)O"
1540

----------
Assay: mouse pharmacokinetics, plasma HPLC-MS/MS
Format: in vivo, mice (B6D2F1)
Settings: both sexes, B6D2F1, plasma, ip, 20 mg/kg in 2% GDM-12
Experimental: Groups of mix gender mice (B6D2F1) were used. […] Samples were analyzed using a HPLC-MS/MS method. […] Compound levels were measured by MS detection with a multiple reaction monitoring (MRM) mode. PK data was analyzed using the WinNonlin program (ver. 5.3, Pharsight) compartmental model of analysis. […]
OBSERVED PROPERTY: bioavailability (%)
Answer with a number only, understood to be in %.

Name the recorded bioavailability of the compound listed here: "CO[C@H]1/C=C/CCCCCOC/C(C)=C\[C@@H](C)[C@@H]1OCC(=O)O"
77.8

----------
Assay: mouse pharmacokinetics, plasma HPLC-MS/MS
Type: in vivo, mice (B6D2F1)
Conditions: both sexes, B6D2F1, plasma, ip, 20 mg/kg in 2% GDM-12, read-out: Half-life (t1/2) (converted)
OBSERVED PROPERTY: half-life (h)
# output: bare number, implied unit h

Return value of half-life for input "CO[C@H]1/C=C/CCCCCOC/C(C)=C\[C@@H](C)[C@@H]1OCC(=O)O" , no commentary.
2.4

// provenance: patent US9303009B2
